biological target: T1, RPA 32C winged-helix domain (residues 172-270 of RPA32) (human, UniProt P15927 172-270); assay: NMR titration; 15N-labelled partner titrated with unlabelled partner; 1H-15N HSQC, 25°C, 20 mM Tris-HCl pH 7.4, 50 mM NaCl, 2 mM DTT, 0.02% NaN3; Kd and Koff from TITAN 2D lineshape analysis, two-state model; settings: both partners purified
T1 construct: RPA32 (RPA2), human, residues 172-270 (winged-helix 32C domain); pET-15b; uniformly 15N-labelled where it was the observed partner; source: E. coli BL21(DE3) pLysS, purified (Ni-NTA, Q column, SEC); not shown: His6, N-terminal, kept
T1 sequence (P15927 172-270): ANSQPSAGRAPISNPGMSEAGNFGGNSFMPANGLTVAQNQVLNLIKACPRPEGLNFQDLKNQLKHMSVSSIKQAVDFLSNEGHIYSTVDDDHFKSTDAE
property name: Kd (µM)
Numbers only; they are read as µM.

Query :: Look up Kd of RTEL1 harmonin homology domain 2 (residues 1056-1140) (domain or fragment, human, UniProt Q9NZ71-6 1056-1140, looked up, RTEL1, human, residues 1056-1140 (HHD2) of Uniprot Q9NZ71-6; uniformly 15N-labelled where it was the observed partner; also called HHD2; RTEL1 HHD2; source: E. coli Rosetta (DE3), purified (Ni-NTA, heparin, SEC); not shown: His6, N-terminal, kept) GQHAVSAYLADARRALGSAGCSQLLAALTAYKQDDDLDKVLAVLAALTTAKPEDFPLLHRFSMFVRPHHKQRFSQTCTDLTGRPY and report it.
Result :: 360

Data origin, for the record: paper PMC10853778
